# target.under.test: T1, recombinant human ASM protein (human, UniProt P17405 47-630)
# T1 construct: Recombinant human ASM in solution; also called acid sphingomyelinase (ASM) protein
# T1 sequence: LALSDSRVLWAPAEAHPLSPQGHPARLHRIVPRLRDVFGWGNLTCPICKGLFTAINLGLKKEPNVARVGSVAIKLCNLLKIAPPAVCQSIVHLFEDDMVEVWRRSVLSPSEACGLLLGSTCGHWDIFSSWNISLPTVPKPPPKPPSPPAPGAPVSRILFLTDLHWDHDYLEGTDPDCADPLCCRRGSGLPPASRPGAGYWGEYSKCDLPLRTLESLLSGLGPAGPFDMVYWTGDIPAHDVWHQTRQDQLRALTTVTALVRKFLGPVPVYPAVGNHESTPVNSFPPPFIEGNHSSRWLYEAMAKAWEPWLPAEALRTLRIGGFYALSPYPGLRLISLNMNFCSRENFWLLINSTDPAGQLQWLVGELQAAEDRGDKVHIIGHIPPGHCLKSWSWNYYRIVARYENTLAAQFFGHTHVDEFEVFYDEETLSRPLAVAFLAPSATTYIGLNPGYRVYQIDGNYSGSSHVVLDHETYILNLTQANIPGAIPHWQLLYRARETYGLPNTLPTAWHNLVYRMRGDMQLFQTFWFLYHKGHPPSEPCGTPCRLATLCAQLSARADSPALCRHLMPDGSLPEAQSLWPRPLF
# experiment.description: BLI (Octet), antibody on AHC sensor
readout.name: Kd (nM)
Reply numerically in nM, unit not repeated.

INSERT INTO assay_data (binder, readout_name, test_result) VALUES
  ('#9104v-L32 (antibody, human IgG4 S228P, lambda, V domains shown, Full-length IgG, lambda) VH: EVQLLESGGGLVQPGGSLRLSCAASGFTFSNYYMSWVRQAPGKGLEWVSGIYYGSGNIYYADSVKGRFTISRDNSKNTLYLQMNSLRAEDTAVYYCARDTPGFDYWGQGTLVTVSS VL: QSVLTQPPSASGTPGQRVTISCTGSSSNIGNNAVNWYQQLPGTAPKLLIYYDSYLPSGVPDRFSGSKSGTSASLAISGLRSEDEADYYCGAWDYSLSAYVFGGGTKLTVLG', 'Kd', 1.37);

The record that follows has no Kd shown yet.
[ask] Which Kd is reported for this binder? #9104v-L19 (antibody, human IgG4 S228P, lambda, V domains shown, Full-length IgG, lambda) VH: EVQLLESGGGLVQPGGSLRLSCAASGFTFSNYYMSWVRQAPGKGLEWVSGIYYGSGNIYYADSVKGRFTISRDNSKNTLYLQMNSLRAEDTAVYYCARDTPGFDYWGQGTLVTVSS VL: QSVLTQPPSASGTPGQRVTISCTGSSSNIGNNAVNWYQQLPGTAPKLLIYYDLFRPSGVPDRFSGSKSGTSASLAISGLRSEDEADYYCGAWDYSLSAYVFGGGTKLTVLG
[reply] 1.03

Origin of measurements: patent US20260201064A1
